- subject-of-test: pooled human IgG
The proteins listed here are annotated with their Enzyme Activity Endpoint Assay: Fab′2.
State the answer as a number, implicitly in ng/µL.

protein: PRT-17 (protein) MANQEIRYSEVTPYHITSVWTKGVTPPTNFTQGEDVFHAPYKANQGWYDITKTFNGKDDLLCGAATAGNMLHWWFDQNKEEIERYLKEHPEKQKINFNGEQMFDVKEAIDTKGSQTDSKLFNYFKDKAFPYLSTKHLGVFPDHVLDMFINGYRLSLTNHGPTPVKEQSKDPRGGIFDAVFTRGDQSKLLTSRHDFKEKNLKEISDLIKKELTEGKALGLSHTYANVRINHVINLWGADFDSEGNLEAIYVTDSDSNASIGMKKYFVGVNSAGKVAISAKEIKGDNIGAQVLGLFTLSTGQDIWEKTN
assay-readout: Enzyme Activity Endpoint Assay: Fab′2
observed-value: 53

Then there is this protein:
Give the measured Enzyme Activity Endpoint Assay: Fab′2 of PRT-27 (protein) MANQEIRYSEVTPYHVTSVWTKGVTPPANFTQGEDVFHAPYVANQGWYDITKTFNGKDDLLCGAATAGNMLHWWFDQNKDQIKRYLEEHPEKQKINFNGEQMFDVKEAIDTKNHQTDSKLFEYFKEKAFPYLSTKHLGVFPDHVIDMFINGYRLSLTNHGPTPVKEGSKDPRGGIFDAVFTRGDQSKLLTSRHDFKEKNLKEISDLIKKELTEGKALGLSHTYANVRINHVINLWGADFDSNGNLEAIYVTDSDSNASIGMKKYFVGVNSAGKVAISAKEIKEDNIGAQVLGLFTLSTGQDSWNQTN . 44

Taken from patent US20250027068.
